biological target: Protein cereblon/Interleukin-1 receptor-associated kinase 4 (Homo sapiens) (UniProt Q9NWZ3+Q96SW2); assay: Protac activity at CRBN/IRAK4 in human TMD8 cells harboring MYD88 L265P mutant assessed as induction of IRAK4 degradation by measuring reduction in IRAK4 protein level at 1 uM incubated for 24 hrs by Western blot analysis; format: cell-based
Sequence (Q96SW2 whole entry, looked up, one chain of several): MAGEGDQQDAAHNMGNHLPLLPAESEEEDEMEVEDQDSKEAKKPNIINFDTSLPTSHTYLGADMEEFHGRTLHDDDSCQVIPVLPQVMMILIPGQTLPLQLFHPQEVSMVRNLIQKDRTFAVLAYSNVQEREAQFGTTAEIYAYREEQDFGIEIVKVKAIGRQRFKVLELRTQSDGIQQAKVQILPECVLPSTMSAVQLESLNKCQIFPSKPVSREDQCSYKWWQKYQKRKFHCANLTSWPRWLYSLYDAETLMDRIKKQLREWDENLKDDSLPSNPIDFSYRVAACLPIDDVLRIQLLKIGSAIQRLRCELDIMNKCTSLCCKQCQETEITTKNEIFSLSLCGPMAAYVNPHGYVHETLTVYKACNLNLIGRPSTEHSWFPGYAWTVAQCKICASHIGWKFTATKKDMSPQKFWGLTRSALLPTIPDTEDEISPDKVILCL
Calls of active or inactive are those of the source. The rule behind the calls is not given here.
Would you mind answering with one of these outcomes? active, inactive

Some entries whose results are on file:
CCOc1cc2nc(CCC(C)(C)C(=O)NCCCCCCNc3cccc4c3C(=O)N(C3CCC(=O)NC3=O)C4=O)n(C)c2cc1NC(=O)c1cccc(C(F)(F)F)n1 (stereo unspecified)
inactive
CCOc1cc2nc(CCC(C)(C)C(=O)NCCCCCCCNc3cccc4c3C(=O)N(C3CCC(=O)NC3=O)C4=O)n(C)c2cc1NC(=O)c1cccc(C(F)(F)F)n1 (stereo unspecified)
active
CCOc1cc2nc(CCC(C)(C)C(=O)NCCCCNc3cccc4c3C(=O)N(C3CCC(=O)NC3=O)C4=O)n(C)c2cc1NC(=O)c1cccc(C(F)(F)F)n1 (stereo unspecified)
inactive
CCOc1cc2nc(CCC(C)(C)C(=O)NCCOCCOCCNc3cccc4c3C(=O)N(C3CCC(=O)N(C)C3=O)C4=O)n(C)c2cc1NC(=O)c1cccc(C(F)(F)F)n1 (stereo unspecified)
inactive
CCOc1cc2nc(CCC(C)(C)C(=O)NCCOCCOCCNc3cccc4c3C(=O)N(C3CCC(=O)NC3=O)C4=O)n(C)c2cc1NC(=O)c1cccc(C(F)(F)F)n1 (stereo unspecified)
active

Let us examine a further case.
Any idea what this test logged for CCOc1cc2nc(CCC(C)(C)C(=O)NCCNc3cccc4c3C(=O)N(C3CCC(=O)NC3=O)C4=O)n(C)c2cc1NC(=O)c1cccc(C(F)(F)F)n1 (stereo unspecified) ?
inactive

----------
system: TMD8; experiment: Antiproliferative activity against human TMD8 cells harboring MYD88 L265P mutant assessed as inhibition of cell growth incubated for 72 hrs by CCK-8 assay; type: functional, cell-based; conditions: TMD8, 72 h
pIC50: −log10 of the molar value.
MEASURED QUANTITY: pIC50

Below are worked cases with known answers.
CCOc1cc2nc(CCC(C)(C)C(=O)NCCOCCOCCNc3cccc4c3C(=O)N(C3CCC(=O)NC3=O)C4=O)n(C)c2cc1NC(=O)c1cccc(C(F)(F)F)n1 (stereo not drawn)
5.12
CCOc1cc2nc(CCC(C)(C)C(=O)OC)n(C)c2cc1NC(=O)c1cccc(C(F)(F)F)n1
< 4.30

Next compound, please.
Note pIC50 for the compound shown: CCOc1cc2nc(CCC(C)(C)C(=O)NCCOCCOCCNc3cccc4c3C(=O)N(C3CCC(=O)N(C)C3=O)C4=O)n(C)c2cc1NC(=O)c1cccc(C(F)(F)F)n1 (stereo not drawn)
< 4.30

----------
target: Protein cereblon/Interleukin-1 receptor-associated kinase 4 (Homo sapiens) (UniProt Q9NWZ3+Q96SW2); experiment: Protac activity at CRBN/IRAK4 in human OCILY10 cells harboring MYD88 L265P mutant assessed as induction of IRAK4 degradation by measuring reduction in IRAK4 protein level at 1 uM incubated for 24 hrs by Western blot analysis; type: cell-based
Active and inactive are the calls of the source. The rule behind the calls is not given here.
Would you mind answering with one of these outcomes? active, inactive

Some entries whose results are on file:
CCOc1cc2nc(CCC(C)(C)C(=O)NCCOCCOCCNc3cccc4c3C(=O)N(C3CCC(=O)NC3=O)C4=O)n(C)c2cc1NC(=O)c1cccc(C(F)(F)F)n1 (stereo unspecified)
active
CCOc1cc2nc(CCC(C)(C)C(=O)NCCOCCNc3cccc4c3C(=O)N(C3CCC(=O)NC3=O)C4=O)n(C)c2cc1NC(=O)c1cccc(C(F)(F)F)n1 (stereo unspecified)
inactive
CCOc1cc2nc(CCC(C)(C)C(=O)NCCCCNc3cccc4c3C(=O)N(C3CCC(=O)NC3=O)C4=O)n(C)c2cc1NC(=O)c1cccc(C(F)(F)F)n1 (stereo unspecified)
inactive
CCOc1cc2nc(CCC(C)(C)C(=O)NCCCCCCNc3cccc4c3C(=O)N(C3CCC(=O)NC3=O)C4=O)n(C)c2cc1NC(=O)c1cccc(C(F)(F)F)n1 (stereo unspecified)
inactive
CCOc1cc2nc(CCC(C)(C)C(=O)NCCNc3cccc4c3C(=O)N(C3CCC(=O)NC3=O)C4=O)n(C)c2cc1NC(=O)c1cccc(C(F)(F)F)n1 (stereo unspecified)
inactive

Any idea what this test logged for CCOc1cc2nc(CCC(C)(C)C(=O)NCCCCCCCNc3cccc4c3C(=O)N(C3CCC(=O)NC3=O)C4=O)n(C)c2cc1NC(=O)c1cccc(C(F)(F)F)n1 (stereo unspecified) ?
inactive

----------
Target: Interleukin-1 receptor-associated kinase 4 (Homo sapiens, UniProt Q9NWZ3)
Sequence (Q9NWZ3 whole entry): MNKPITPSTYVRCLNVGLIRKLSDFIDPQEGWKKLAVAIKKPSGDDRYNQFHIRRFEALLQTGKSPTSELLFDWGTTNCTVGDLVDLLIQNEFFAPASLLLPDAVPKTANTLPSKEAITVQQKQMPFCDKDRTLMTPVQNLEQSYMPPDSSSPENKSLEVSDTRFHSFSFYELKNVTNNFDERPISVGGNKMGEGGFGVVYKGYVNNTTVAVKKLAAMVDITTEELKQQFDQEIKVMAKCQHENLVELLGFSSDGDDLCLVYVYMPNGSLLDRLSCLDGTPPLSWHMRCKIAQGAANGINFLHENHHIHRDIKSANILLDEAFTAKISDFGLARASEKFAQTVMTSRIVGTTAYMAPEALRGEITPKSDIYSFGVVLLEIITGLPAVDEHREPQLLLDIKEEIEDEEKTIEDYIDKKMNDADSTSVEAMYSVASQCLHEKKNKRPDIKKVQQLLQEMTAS
Test: Inhibition of human full length N-terminal His6-tagged recombinant IRAK4 expressed in baculovirus-infected Sf21 cells by Z'-LYTE assay
MEASURED QUANTITY: pIC50
By convention, pIC50 is the negative base-10 log of a molar concentration.

Enter pIC50 (test system Interleukin-1 receptor-associated kinase 4 (Homo sapiens, UniProt Q9NWZ3)) for CCOc1cc2nc(CCC(C)(C)C(=O)OC)n(C)c2cc1NC(=O)c1cccc(C(F)(F)F)n1
7.15

----------
biological target: Protein cereblon/Interleukin-1 receptor-associated kinase 4 (Homo sapiens) (UniProt Q9NWZ3+Q96SW2); test: Protac activity at CRBN/IRAK4 in human OCILY10 cells harboring MYD88 L265P mutant assessed as induction of IRAK4 degradation by measuring reduction in IRAK4 protein level at 1 uM incubated for 24 hrs by Western blot analysis; format: cell-based
The source made the active and inactive calls. No cut-off for these calls is given here.
MEASURED QUANTITY: Activity

CCOc1cc2nc(CCC(C)(C)C(=O)NCCCNc3cccc4c3C(=O)N(C3CCC(=O)NC3=O)C4=O)n(C)c2cc1NC(=O)c1cccc(C(F)(F)F)n1 (stereo not drawn)
inactive
CCOc1cc2nc(CCC(C)(C)C(=O)NCCOCCOCCNc3cccc4c3C(=O)N(C3CCC(=O)N(C)C3=O)C4=O)n(C)c2cc1NC(=O)c1cccc(C(F)(F)F)n1 (stereo not drawn)
inactive
CCOc1cc2nc(CCC(C)(C)C(=O)NCCCCCNc3cccc4c3C(=O)N(C3CCC(=O)NC3=O)C4=O)n(C)c2cc1NC(=O)c1cccc(C(F)(F)F)n1 (stereo not drawn)
inactive

----------
target: Protein cereblon/Interleukin-1 receptor-associated kinase 4 (Homo sapiens) (UniProt Q9NWZ3+Q96SW2); assay: Protac activity at CRBN/IRAK4 in human TMD8 cells harboring MYD88 L265P mutant assessed as induction of IRAK4 degradation by measuring reduction in IRAK4 protein level at 1 uM incubated for 24 hrs by Western blot analysis; assay type: cell-based
Activity calls are given as the source filed them. No cut-off for these calls is given here.
MEASURED QUANTITY: Activity

CCOc1cc2nc(CCC(C)(C)C(=O)NCCCNc3cccc4c3C(=O)N(C3CCC(=O)NC3=O)C4=O)n(C)c2cc1NC(=O)c1cccc(C(F)(F)F)n1 (stereo not drawn)
inactive
CCOc1cc2nc(CCC(C)(C)C(=O)NCCCCCNc3cccc4c3C(=O)N(C3CCC(=O)NC3=O)C4=O)n(C)c2cc1NC(=O)c1cccc(C(F)(F)F)n1 (stereo not drawn)
inactive
CCOc1cc2nc(CCC(C)(C)C(=O)NCCOCCNc3cccc4c3C(=O)N(C3CCC(=O)NC3=O)C4=O)n(C)c2cc1NC(=O)c1cccc(C(F)(F)F)n1 (stereo not drawn)
inactive
